Biological target: Mitogen-activated protein kinase 7 (Homo sapiens) (UniProt Q13164)
Sequence (Q13164 whole entry, looked up, the tested form may be a part): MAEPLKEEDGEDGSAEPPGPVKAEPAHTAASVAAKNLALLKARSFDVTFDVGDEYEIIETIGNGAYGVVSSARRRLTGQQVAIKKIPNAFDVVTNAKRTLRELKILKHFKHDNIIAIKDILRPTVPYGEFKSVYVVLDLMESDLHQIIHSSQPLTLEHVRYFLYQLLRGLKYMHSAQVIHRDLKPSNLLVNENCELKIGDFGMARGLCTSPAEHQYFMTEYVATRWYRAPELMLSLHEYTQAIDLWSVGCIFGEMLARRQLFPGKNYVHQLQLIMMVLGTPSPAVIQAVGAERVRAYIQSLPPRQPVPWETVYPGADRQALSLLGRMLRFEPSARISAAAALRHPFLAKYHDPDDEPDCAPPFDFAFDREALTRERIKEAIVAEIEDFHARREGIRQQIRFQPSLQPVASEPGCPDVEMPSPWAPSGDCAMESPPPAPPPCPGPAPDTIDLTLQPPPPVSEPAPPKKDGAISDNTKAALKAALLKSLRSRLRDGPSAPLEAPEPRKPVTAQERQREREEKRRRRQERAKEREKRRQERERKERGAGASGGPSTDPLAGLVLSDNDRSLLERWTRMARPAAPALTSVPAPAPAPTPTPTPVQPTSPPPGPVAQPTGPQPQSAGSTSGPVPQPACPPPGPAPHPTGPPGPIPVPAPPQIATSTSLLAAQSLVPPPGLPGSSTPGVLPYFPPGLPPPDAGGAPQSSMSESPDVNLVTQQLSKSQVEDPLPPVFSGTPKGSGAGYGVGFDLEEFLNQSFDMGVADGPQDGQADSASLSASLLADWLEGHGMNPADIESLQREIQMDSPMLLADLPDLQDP
Experiment: ERK5 transactivation activators in reporter cells, primary screen, cell-based, HTS (AID 1508626);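 also: luciferase driven by Gal4-ERK5 fusion binding five Gal4 sites before minimal TATA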
Settings: HeLa Gal4-ERK5 transactivation, 18 h, at 5 µM, active compounds read high
Active and inactive are the calls of the source.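 The calls were made as follows: active = luciferase signal above three times the same-plate solvent-only control wells; inactive = the rest.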
Please go through the items and note down their luciferase signal.

Form field luciferase signal, entry O=C(/C=C/c1ccccc1)c1ccc(O)cc1O : 52 AU (inactive)

Record summary for CC(=O)Oc1cc(OC(C)=O)c2c(c1)O[C@H](c1ccc(OC(C)=O)c(OC(C)=O)c1)[C@@H](OC(C)=O)C2 : reported luciferase signal = 16 AU (inactive)

Record NCCOB(c1ccccc1)c1ccccc1 . Reported luciferase signal: 120 AU (inactive)

Consider CN1[C@@H]2CC[C@H]1CC(OC(=O)C(CO)c1ccccc1)C2 (stereo partly drawn) . Its measured luciferase signal is 44 AU (inactive)

Just so you know, measured luciferase signal for C[N+](C)(C)C[C@H](O)CC(=O)[O-] came out at 32 AU (inactive)

Record summary for O=S(=O)(O)c1cc(N=C=S)ccc1/C=C/c1ccc(N=C=S)cc1S(=O)(=O)O : reported luciferase signal = 52 AU (inactive)

Summary for this compound, Nc1ccc(S(=O)(=O)[O-])cc1.Nc1ccc(S(=O)(=O)[O-])cc1.[Zn+2] : luciferase signal is 56 AU (inactive)

The compound listed as COc1cccc2c1C(=O)c1c(O)c3c(c(O)c1C2=O)C[C@@](O)(C(=O)CO)C[C@@H]3O[C@H]1C[C@H](N)[C@@H](O)[C@H](C)O1 has a reported luciferase signal of 20 AU (inactive)
